Biological target: T1, human LILRB1 recombinant protein (human, UniProt Q8NHL6 24-461)
T1 construct: The ELISA method says only 'LILRB1 recombinant proteins' coated on plates; also called leukocyte immunoglobulin-like receptor subfamily B member 1
T1 sequence (Q8NHL6 24-461 limits assumed): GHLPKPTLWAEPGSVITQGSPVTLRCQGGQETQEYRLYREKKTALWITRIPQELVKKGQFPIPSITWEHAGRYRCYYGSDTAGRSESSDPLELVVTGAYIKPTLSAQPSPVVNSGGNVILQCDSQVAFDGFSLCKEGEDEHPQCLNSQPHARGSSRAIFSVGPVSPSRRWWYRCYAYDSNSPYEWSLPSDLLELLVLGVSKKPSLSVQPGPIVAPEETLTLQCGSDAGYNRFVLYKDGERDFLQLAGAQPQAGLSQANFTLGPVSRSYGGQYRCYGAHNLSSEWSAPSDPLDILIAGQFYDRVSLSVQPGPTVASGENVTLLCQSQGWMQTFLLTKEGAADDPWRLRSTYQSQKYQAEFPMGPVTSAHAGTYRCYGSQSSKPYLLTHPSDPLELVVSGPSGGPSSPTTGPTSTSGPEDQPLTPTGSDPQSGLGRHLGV
Test: ELISA, B cell supernatant
assay_metric: OD450

- binder: "mAb of B cell clone 22 (supernatant) (antibody, V domains shown, rabbit; also called B1-#22) VH: EQSLEESGGGLVKPGASLTLTCKASGFDFSSNDYMCWVRQAPGKGLEWIGCIYGGDGHTYYATWAKGRFTISKASSTTVTLQMTSLTAADTASYFCARGYSYGDTGYADAILTLDLWGPGTLVTVSS VL: ELDLTQTPASVEAAVGGTVTIKCQASQTIGSYLSWYQQKPGQRPKLLIYEASKLASGVPSWFKGSGSGTEFTLTISDLECADAATYYCQSNYYRAGGNYGGAFGGGTEVEIK"
  assay_metric: "OD450"
  observed_value: "1.84 OD450"
- binder: "mAb of B cell clone 3 (supernatant) (antibody, V domains shown, rabbit; also called B1-#3) VH: QSLEESEGDLVKPEGSLTLTCKASGFDFSSDAMCWVRQAPGKGLEWIGCIYNGDEITDHASWAKGRFTISKTSPTTVTLQMTSLTVADTATYFCARAVYSDGGAGYPYMYGMDLWGPGTLVTVSS VL: ELDMTQTPASVEAAVGGTVTIKCQASQNIYSYLVWYQQKPGQPPKLLISKASTLASGVSSRFKGSGSGTEFTLTINDLECADAATYYCQTNYFSSTSHFGVFTFGGGTELEIK"
  assay_metric: "OD450"
  observed_value: "2.11 OD450"
- binder: "mAb of B cell clone 224 (supernatant) (antibody, V domains shown, rabbit) VH: EQSVEESGGGLVQPEGSLTLTCTASGIDFSSGAWICWVRQAPGKGLELIACIFTTSGFTYYASWAKGRFTISKTSSTTVTLQMTSLTAADTATYFCARDIYSYGMDLWGPGTLVTISS VL: ELVLTQTPSSVSEPVGGTVTIKCQASQSISSSYLAWYQQKPGQPPKFLIYSASTLASGVPSRFKGSGSGTEFTLTISDLECADAATYYCQSTYISSSNYGAAFGGGTEVEIK"
  assay_metric: "OD450"
  observed_value: "2.09 OD450"

Inquiry: Give me measured OD450, please, for this binder: mAb of B cell clone 203 (supernatant) (antibody, V domains shown, rabbit) VH: QSLKESEGDLVKPGASLTLTCTASGFSFSSSYWICWVRQAPGKGLEWIACIYAGSSGSTYYASWAKGRFTISKTSSTTVTLEMTSLTDADTATYFCARGFSMFKLWGPGTLVTISS VL: ELVLTQTPSSVEAAVGGTVTIKCQASQSIGSYLAWYQQKPGQPPKLLIYKASTLSSGVSSRYKGSGSGTEFTLTISDLECDDAATYYCQYTSYSSGGAFGGGTEVVVK
Reply text: 1.75 OD450

Inquiry: Give me measured OD450, please, for this binder: mAb of B cell clone 227 (supernatant) (antibody, V domains shown, rabbit) VH: QSVKESGGGLVKPGGTLTLTCTASGFSFSSSYCMCWVRQAPGKGLELIACIYTDSSGATYYASWAKGRFTISKSSSTTITLQMTSLTAADTATYFCARGWDYEDPGYTDTTYFSLWGPGTLVTVSS VL: ELDLTQTASPVSGAVGGTVTIKCQASQSIASDLAWYQQKPGQPPNLLIYAASTLASGVSSRFKGSGSGTEFTLTISDLECADAATYYCQSYYGSSTTGNGFGGGTEVVVK
Reply text: 2.08 OD450

Reference source: patent US12723078
